- Test system: Malme-3M
- ASSAY: NCI tumour cell line growth inhibition, 48 h
Calls of active or inactive are those of the source. No stated cut-off is given here; in the data, active = GI50 up to about 1.1 µM and inactive = higher.
Listing: GI50 of selected compounds

Examples with their reported GI50 follow.
Using known records, supply GI50 for C=CCOC(=O)N1c2ccc(O)cc2[C@@]23O[C@@]24[C@@H]1C#C/C=C\C#C[C@]3(O)C(OC)(OC)C[C@@H]4C
26800 nM (inactive)

For Cc1ccc(S(=O)(=O)n2c3c(c4ccccc42)CCN2C(=O)C(S(=O)(=O)c4ccccc4)=CCC32)cc1 (stereo not drawn) , write its GI50.
213 nM (active)

Shifting focus to the compound that follows.
Assign GI50 to the following record: CC(=O)O[C@@H]1CO[C@H]2O[C@H]3[C@@H](C(C=O)=C[C@H](O)[C@@H]4C5=C(C(C)C)CC[C@]5(C)CC[C@@]34C)[C@@]2(O)C1=O [STRIATIN E]
177 nM (active)

====

- Tested on: Hs-578T
- ASSAY: NCI tumour cell line growth inhibition, 48 h
Activity calls are given as the source filed them. No stated cut-off is given here; in the data, active = GI50 up to about 1.1 µM and inactive = higher.
ATTRIBUTE MEASURED: GI50

Worked cases, answers included:
Return reported GI50. Input compound: O=C(n1[nH]c(=O)n(-c2ccc([N+](=O)[O-])cc2)c1=O)C(Cl)(Cl)Cl
> 75 µM (inactive)

Indicate the recorded GI50 value for this compound: CC(CC[C@@]1(O)OC2C[C@H]3[C@@H]4CC[C@H]5CC(OC6OC(CO)C(OC7OC(CO)C(O)C(OC8OCC(O)C(O)C8O)C7OC7OC(CO)C(O)C(O)C7O)C(O)C6O)[C@H](O)CC5(C)[C@H]4CCC3(C)C2[C@@H]1C)COC1OC(CO)C(O)C(O)C1O (stereo not given in full)
4.73 µM (inactive)

Look up and state reported GI50 for Cc1noc(C)c1-n1nc2ccc3nonc3c2n1
29 µM (inactive)

Give a short answer stating reported GI50 for CCCC[C@@H](C)/C=C1\CN2CCC[C@H]2[C@@](C)(O)[C@@H]1O .
> 100 µM (inactive)

Look up GI50 of OCCNC1c2cc(Cl)ccc2-c2c(Cl)cc(Cl)cc21 (stereo not given) and report it.
33.1 µM (inactive)

Look up and report measured GI50 for this entry: CN(C)c1ccc(/C=C2\Oc3cc(O)ccc3C2=O)cc1
> 100 µM (inactive)

Others:
Output measured GI50 for this item: COc1cc(N(Cc2ccc3nc(OC)c(OC)nc3c2)Cc2ccc3nc(OC)c(OC)nc3c2)cc(OC)c1OC
7.67 µM (inactive)

# return recorded GI50 for entry Cc1cccc2c(N)c3cccc(C(=O)NCC[N+](C)(C)Cc4ccc(S(C)(=O)=O)cc4)c3nc12
19.9 µM (inactive)

Please give the documented GI50 of COc1ccc(/C=C2\CN(C)CC3C2=NN(c2ccccc2)C3c2ccc(OC)cc2)cc1 (stereo not given)
42.8 µM (inactive)

Please indicate GI50 recorded for CN(C)CCCNC(CC#N)CCC#N (stereo not given)
> 10 µM (inactive)

====

- System: HOP-62
- ASSAY: NCI tumour cell line growth inhibition, 48 h
Calls of active or inactive are those of the source. Rule as the data show it: active = GI50 up to about 1.1 µM and inactive = higher.
ATTRIBUTE MEASURED: GI50

Below are worked cases with known answers.
State its GI50 for this compound: Cc1ccc(S(=O)(=O)N(/N=C(\N)Oc2ccc(Cl)cc2)C(=N)Oc2ccc(Cl)cc2)cc1
> 100 µM (inactive)

Report measured GI50; entry is COC(=O)C1=CSC2(S1)C(C(=O)OC)=CSc1c2ssc1=O (stereo not given)
3.06 µM (inactive)

Given Clc1ccc(-c2nnc(C34CC5CC(CC(C5)C3)C4)o2)cc1 , respond with its GI50.
> 100 µM (inactive)

Supply recorded GI50 for O=C1NC(=S)NC(=O)C1=Cc1ccc([N+](=O)[O-])o1 here.
> 100 µM (inactive)

Consider the compound CCOC(=O)c1[nH]c2cccc3c2c1CC(Br)C3=O (stereo not given) . State its measured GI50.
19 µM (inactive)

Identify measured GI50 corresponding to [O-][S+]1CSSC1
36.3 µM (inactive)

Recall and state the measured GI50 for CCOC(=O)N1C/C(=C\c2ccccc2)C(=O)/C(=C/c2ccccc2)C1 .
4.41 µM (inactive)

Identify GI50 associated with the compound CC1CCC(C(C)C2C(O)CC3C4CC=C5CC(O)CCC5(C)C4CCC32C)NC1 (stereo not given)
27.7 µM (inactive)

Next:
Assign GI50 to the following record: O=C1c2ccccc2-c2[nH]c3cn[nH]c(=O)c3c21
82 µM (inactive)

Annotate the compound COc1cccc2c1C(=O)c1c(O)c3c(c(O)c1C2=O)C[C@@](O)(C(C)=O)C[C@@H]3OC1CC(N(C)C)C(O)C(C)O1 (stereo not given in full) with its measured GI50.
0.00344 µM (active)

====

- System: SK-OV-3
- ASSAY: NCI tumour cell line growth inhibition, 48 h
Active and inactive are the calls of the source. Cut-off read from the data, not from the text of the source: active = GI50 up to about 1.1 µM and inactive = higher.
The following compounds are listed with their measured GI50 values.

Some solved cases for reference:
Query GI50 for CCCCC(=O)c1c(O)nc2sccn2c1=O
> 10 µM (inactive)

Query GI50 for C#CCOCC12C=CC(O1)C1C(=O)OCC12 (stereo unspecified)
> 100 µM (inactive)

Consider the compound O=c1c2cccnc2ncn1CCCN1CCCC1 . State its measured GI50.
> 100 µM (inactive)

Give the reported GI50 for this compound. COC1C(N(C)C)=C(c2ccccc2)C(=O)N2CCc3ccccc3C12 (stereo unspecified)
> 100 µM (inactive)

// Input: Cc1ccc(S(=O)(=O)n2c3c(c4ccccc42)CCN2C(=O)C(S(=O)(=O)c4ccccc4)=CCC32)cc1 (stereo unspecified) . Output its GI50 only.
1.3 µM (inactive)

More entries:
Answer with the recorded GI50 of Cc1c(Cl)ccc2c1NC(=O)C2(O)CC(=O)c1cccc2ccccc12 (stereo unspecified) only.
> 100 µM (inactive)

Determine its reported GI50: CCN(CC)CCSc1c2ccccc2nc2cc(NCC(=O)Nc3ccccc3-c3ccccc3NC(=O)CNc3ccc4c(SCCN(CC)CC)c5ccccc5nc4c3)ccc12
> 100 µM (inactive)

Give the measured GI50 for O=C(O)CNc1cc(-c2ccccc2)nc(NCC(=O)O)n1
> 100 µM (inactive)

Using the record for CC(C)(C)[Si](C)(C)OCC1OC(n2cnc3c(N)ncnc32)CC1O (stereo unspecified) , state its measured GI50.
81.5 µM (inactive)

Give GI50 for Cc1nn2c(C(=O)N/N=C/c3ccc([N+](=O)[O-])cc3)c(C)nc2s1
28.4 µM (inactive)

Please report GI50 for the following compound: COC(=O)C(CNC(=O)/C=C/c1ccc(OC(C)=O)c(OC(C)=O)c1)NC(=O)/C=C/c1ccc(OC(C)=O)c(OC(C)=O)c1 (stereo unspecified)
57.5 µM (inactive)

Assign GI50 to the following record: COc1ccc(/C=c2/sc3n(c2=O)NC2(CCC(C)CC2)NN=3)cc1 (stereo unspecified)
> 100 µM (inactive)

====

Overview of reported GI50 across a group of molecules:
- System: LOX IMVI
- ASSAY: NCI tumour cell line growth inhibition, 48 h
Calls of active or inactive are those of the source. Cut-off read from the data, not from the text of the source: active = GI50 up to about 1.1 µM and inactive = higher.

Using the record for Nc1ccc(S(=O)(=O)NCc2nccs2)cc1 , state its measured GI50.
19.9 µM (inactive)

***
Give a short answer stating reported GI50 for COP(C)(=O)C1=CCN(C(=O)OCC[Si](C)(C)C)CC1 (stereo not given) .
> 100 µM (inactive)

Consider the molecule C=CC[C@H]1[C@H](O[Si](C)(C)C(C)(C)C)C=CC(=O)[C@@H]1CC(=O)OCC and give its recorded GI50.
17.5 µM (inactive)

Give the reported GI50 for this molecule. NNC(=O)c1cc(Cl)ccc1NC(=O)C12CC3CC(CC(C3)C1)C2
32 µM (inactive)

Output GI50 of CN(C)C(=S)N1C(=S)N(c2ccccc2)C(=N/c2ccccc2)/C1=N\c1ccccc1
> 100 µM (inactive)

====

- Tested on: SK-MEL-2
- ASSAY: NCI tumour cell line growth inhibition, 48 h
Active and inactive are the calls of the source. Rule as the data show it: active = GI50 up to about 1.1 µM and inactive = higher.
Choose the fitting class; nothing outside t (active), f (inactive) is accepted.

Give the logged outcome of this assay for the following molecule: c1cc2nnc1SCCSCCCSCCS2
f

Fill in: this test's call for Cc1ccc(-c2cc(-c3ccco3)c(C#N)c(=O)n2C2OC(OC(=O)c3ccccc3)C(OC(=O)c3ccccc3)C2OC(=O)c2ccccc2)cc1 (stereo unspecified) is ___
f

What call does the record list for CN(/N=C/c1ccc(Cl)c(Cl)c1)C1=NCCCCN1 ?
f

// param item: c1ccc2c(c1)SP1Sc3ccccc3P21 (stereo unspecified) ; yields the recorded call
f

State the result this test recorded for Cc1ccc(S(=O)(=O)c2ccc(C)cc2[N+](=O)[O-])c([N+](=O)[O-])c1 .
f

For CC(=O)O[C@@H]1CO[C@H]2O[C@H]3[C@@H](C(C=O)=C[C@H](O)[C@@H]4C5=C(C(C)C)CC[C@]5(C)CC[C@@]34C)[C@@]2(O)C1=O , what call appears in the results of this test?
t

Recorded test outcome, item Cn1c(=O)oc2cc(C(=O)CSC(=S)N3CCCCCC3)ccc21
f

Recorded test call requested for COc1ccc(C2CC(c3c(O)ccc4ccccc34)=NN2)cc1OC (stereo unspecified)
f

Please share the test call associated with CC(C)CCNC(=O)c1ccc(CNC(=O)/C=C/c2cccc(Oc3ccccc3)c2)cc1 .
f

Please state the recorded outcome for this molecule: NC(=O)c1nnc2c(F)cccc2c1N
f

Continuing:
In this assay, the call recorded for CCOC(=O)C12OC(CCC1=O)C(C(=O)OC)=C2C(=O)OC (stereo unspecified) was what?
f

Please share the test call associated with C=CCOC(=O)N1c2ccc(O)cc2[C@@]23O[C@@]24[C@@H]1C#C/C=C\C#C[C@]3(O)C(OC)(OC)C[C@@H]4C .
f
